Form field: Ki (one value per entry).
System under test: soluble human BACE1 catalytic domain (Homo sapiens (Human), UniProt P56817)
Sequence (P56817 75-416): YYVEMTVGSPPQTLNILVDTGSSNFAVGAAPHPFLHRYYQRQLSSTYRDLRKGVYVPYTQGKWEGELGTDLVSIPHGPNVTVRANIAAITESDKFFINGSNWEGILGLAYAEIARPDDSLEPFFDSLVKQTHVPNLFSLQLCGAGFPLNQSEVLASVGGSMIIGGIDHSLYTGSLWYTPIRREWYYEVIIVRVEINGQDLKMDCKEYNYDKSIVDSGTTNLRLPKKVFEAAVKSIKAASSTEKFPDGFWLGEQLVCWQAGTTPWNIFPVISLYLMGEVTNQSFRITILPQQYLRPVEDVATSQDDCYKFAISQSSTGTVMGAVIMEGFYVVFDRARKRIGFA
Assay comment: BACE1 HTRF FRET Assay
Setup conditions: read-out: BACE1 Ki; Ki calculated from IC50 using the Cheng-Prusoff equation
Respond numerically; units are nM and should not be typed.

Examples with their reported Ki follow.
[Q] Form field: reported Ki of CC1(C)C(=N)N[C@](C)(c2cc(NC(=O)c3ncc(F)cc3F)cc(F)c2F)CS1(=O)=O [Example 9ba]
[A] 21

[Q] # lookup: Ki of C[C@@]1(c2cccc(F)c2)C(=N)N[C@](C)(c2cc(NC(=O)c3ccc(F)cn3)ccc2F)CS1(=O)=O [Example 9da-b]
[A] 198

[Q] Quick one: Ki of C[C@@]1(c2cc(NC(=O)c3ccc(F)cn3)ccc2F)CS(=O)(=O)[C@@](C)(c2cccc(F)c2)C(=N)N1 [Example 9da-a] ?
[A] 3.6

[Q] GET /values?readout=Ki&item= Cc1noc(CC(=O)Nc2cc(F)c(F)c([C@]3(C)CS(=O)(=O)C(C)(C)C(=N)N3)c2)n1 [Example 9bq]
[A] 4960

[Q] Could you tell me which Ki is on file for CC[C@@]1(C)C(=N)N[C@](C)(c2cc(NC(=O)c3ccc(OC)cn3)ccc2F)CS1(=O)=O [Example 9cm-a] ?
[A] 5.6

[Q] For the compound shown here, C[C@]1(CC2CC2)C(=N)N[C@](C)(c2cc(NC(=O)c3ccc(Cl)cn3)ccc2F)CS1(=O)=O [Example 9di-a] , give the reported Ki.
[A] 4.3

[Q] Bench note: what Ki did CC1(C)C(=N)N[C@](C)(c2sc(-c3cccc(-c4cnco4)c3)cc2Cl)CS1(=O)=O [Example 27c] show?
[A] 12.8

[Q] I would be grateful if you could share the reported Ki for C[C@]1(CC2CC2)C(=N)N[C@](C)(c2cc(NC(=O)c3ccc(C(F)(F)F)cn3)ccc2F)CS1(=O)=O [Example 9dl-a] .
[A] 4.4

Others:
[Q] Recorded Ki of CC1(C)C(=N)N[C@](C)(c2cc(NC(=O)C3CCC3(F)F)cc(F)c2F)CS1(=O)=O (stereo partly drawn) [Example 9br] , please.
[A] 610

[Q] Form field: reported Ki of COc1cnc(C(=O)Nc2ccc(F)c([C@]3(C)CS(=O)(=O)[C@](C)(c4ccc(F)cc4)C(=N)N3)c2)cn1 [Example 9dg-b]
[A] 186

[Q] What does the record list as Ki for CC1(C)C(=N)N[C@](C)(c2sc(-c3cccc(-c4nnco4)c3)cc2Cl)CS1(=O)=O [Example 27b] ?
[A] 8.2

[Q] # input compound: CC1(C)C(=N)N[C@](C)(c2cc(NC(=O)C3(C#N)CC3)cc(F)c2F)CS1(=O)=O [Example 9bj] ; wanted: its Ki
[A] 485

[Q] Which Ki value is on record for CC1(C)C(=N)N[C@](C)(c2sc(C(=O)NCc3cnsn3)cc2Cl)CS1(=O)=O [Example 22r] ?
[A] 186

[Q] Request the reported Ki associated with CC1(C)C(=N)N[C@](C)(c2sc(C(=O)NCc3ccc(C#N)cc3)cc2Cl)CS1(=O)=O [Example 22m]
[A] 1030

[Q] Entry CC1(C)C(=N)N[C@](C)(c2cc(NC(=O)c3ccc(OC(F)F)cn3)ccc2F)CS1(=O)=O [Example 9c] has what Ki?
[A] 0.6
